- ASSAY: Cytotoxicity against human CEM-SS cells infected with HIV1 3B after 6 days by XTT assay
- Type: cell-based
- CONDITIONS: read-out: TC50
ASSAY READOUT: log10 of CC50 at 144 h (log10 of the value in µM)
Log scale reminder: CC50 at 144 h in µM, then log10 taken.

Below: 4 substances and their reported log10 of CC50 at 144 h.
SUBSTANCE | READOUT VALUE
H-IKWKKLLRAAKRIL-NH2 | 0.11
H-GWFDVVKHIAKRF-NH2 | 1.03
H-GLLGLLGSVVSHVVPAIVGHF-NH2 [Maculatin 1.3] | 0.90
H-SLSRFLRFLKIVYRRAF-NH2 | 0.93

I need log10 of CC50 at 144 h for every entry listed below, if you could help.
1. H-IWLTALKFLGKHAAKHLAKQQLSKL-OH [Lycotoxin I]
2. H-GIWDTIKSMGKVFAGKILQNL-NH2 [Brevinin-2]
3. H-LLKELWTKIKGAGKAVLGKIKGLL-OH [Ponericin L2]
4. H-GLRRLLGRLLRRLGRLLLR-OH

[0.38, 0.87, 1.39, 1.41]

// input: 5 substances below; output: log10 of CC50 at 144 h for each
1. H-GWFDIIKKIASEL-OH
2. H-GFKRIVQRIKDFLRNLV-NH2
3. H-GFKDLLKGAAKALVKTVLF-NH2 [Ascaphin-8]
4. H-VFQFLGRIIHHVGNFVHGFSHVF-OH [Clavanin B]
5. H-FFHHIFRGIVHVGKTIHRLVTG-OH [Piscidin 3]

1: 1.59; 2: 1.03; 3: 0.46; 4: 1.57; 5: 0.84

Would you mind giving log10 of CC50 at 144 h for every substance in the list below?
1. H-GLKKLLGKLLKKLGKLLLK-OH
2. H-GLFDIIKKIAESW-OH
3. H-ILGPVLGLVSRTLRRVLGIL-OH

[1.40, 1.57, 0.94]
